assayed system: T1, hRAGE-Fc (human, UniProt Q15109 23-342, biotin label in the selections and HTRF assays)
T1 construct: extracellular domain; also called biotin labeled hRAGE-Fc; Biotin-labeled RAGE-Fc; not shown: Fc part
T1 sequence (Q15109 23-342): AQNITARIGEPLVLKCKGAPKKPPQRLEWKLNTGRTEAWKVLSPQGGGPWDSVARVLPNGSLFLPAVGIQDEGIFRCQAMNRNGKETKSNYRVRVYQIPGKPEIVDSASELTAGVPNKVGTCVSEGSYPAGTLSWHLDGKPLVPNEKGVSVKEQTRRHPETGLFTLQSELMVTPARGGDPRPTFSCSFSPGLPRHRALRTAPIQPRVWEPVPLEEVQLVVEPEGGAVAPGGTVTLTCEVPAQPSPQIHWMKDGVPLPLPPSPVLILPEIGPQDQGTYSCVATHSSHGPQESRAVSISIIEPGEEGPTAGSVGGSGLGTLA
assay protocol: HTRF competition, scFv vs labelled parental XT-M4 (competitor) on biotin hRAGE-Fc
The binders listed here are annotated with their pIC50.
Convention used: pIC50 is expressed as -log10 of the molar concentration.

binder="3G8 scFv (scFv) scFv: DIQMTQSPSSLSASVGDRVTITCRASQDVGIYVNWFQQKPGKAPRRLIYRATNLADGVPSRFSGSRSGTDFTLTISSLQPEDFATYYCLQYDAHPLTFGGGTKVEIKDGGGSGGGGSGGGGSSEVQLVESGGGLVQPGGSLRLSCAASGFTFNNYWMTWVRQAPGKGLEWVASIDNSGDNTYYPDSVKDRFTISRDNAKNSLYLQMNSLRAEDTAVYYCARGGDITTGFDYWGQGTLVTVSS" endpoint_name=pIC50 experimental_value=8.09

Let us examine a further case.
response.value for 6B6 scFv (scFv) scFv: DIQMTQSPSSLSASVGDRVTITCRASQDVGIYVNWFQQKPGKAPRRLIYRATNLADGVPSRFSGSRSGTDFTLTISSLQPEDFATYYCLEFDEHPLTFGGGTKVEIKDGGGSGGGGSGGGGSSEVQLVESGGGLVQPGGSLRLSCAASGFTFNNYWMTWVRQAPGKGLEWVASIDNSGDNTYYPDSVKDRFTISRDNAKNSLYLQMNSLRAEDTAVYYCARGGDIIISLDWWGQGTLVTVSS (field: pIC50) = 9.19

Data provenance is patent US20100143349A1.
